molecular target: P2Y12 receptor (Homo sapiens, UniProt Q9H244); construct: expressed in transfected cells; host or cells: CHO cells (membrane preparation); experiment: Functional inhibition of 2-Me-S-ADP induced P2Y12 signalling (35S-GTPγS binding, cell membranes); format: biochemical; settings: 35S-GTPγS assay, membranes, EC80 concentration of 2-methyl-thio-adenosine diphosphate, 30° C. for 45 min; read-out: GTPγS (IC50 μM)
Sequence (Q9H244 whole entry): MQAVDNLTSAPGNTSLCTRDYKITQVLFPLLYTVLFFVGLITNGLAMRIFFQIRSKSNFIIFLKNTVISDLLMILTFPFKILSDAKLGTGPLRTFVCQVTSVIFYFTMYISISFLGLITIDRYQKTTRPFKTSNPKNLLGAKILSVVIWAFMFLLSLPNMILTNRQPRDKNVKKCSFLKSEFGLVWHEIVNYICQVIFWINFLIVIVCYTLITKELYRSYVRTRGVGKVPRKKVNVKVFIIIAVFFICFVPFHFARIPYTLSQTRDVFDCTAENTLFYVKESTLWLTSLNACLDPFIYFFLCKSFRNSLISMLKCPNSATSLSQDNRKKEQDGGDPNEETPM
Listing: IC50 of selected compounds
A complete answer gives the number and then names the unit.

Summary line: CCOC(=O)c1cc(C#N)c(N2CCC(C(=O)NS(=O)(=O)Cc3ccccc3)CC2)nc1OCC(=O)O [Example 24] , P2Y12 receptor (Homo sapiens, UniProt Q9H244), reported IC50 = 0.025 µM

The reported P2Y12 receptor (Homo sapiens, UniProt Q9H244) IC50 of CCOC(=O)c1cc(C#N)c(N2CCC(C(=O)NS(=O)(=O)Cc3ccc(Cl)cc3Cl)CC2)nc1CN1CCCC1=O [Example 41] is 0.016 µM

Let me check: CCOC(=O)c1cc(C#N)c(N2CCC(C(=O)NS(=O)(=O)Nc3ccc(F)cc3)CC2)nc1CN1CCCC1=O [Example 77] , system P2Y12 receptor (Homo sapiens, UniProt Q9H244), measured IC50 is 0.017 µM

For CCOC(=O)c1cc(C#N)c(N2CCC(C(=O)NS(=O)(=O)Cc3ccccc3)CC2)nc1CSc1nccn1C [Example 118] on P2Y12 receptor (Homo sapiens, UniProt Q9H244), measured IC50 was 0.052 µM

The reported IC50 value, P2Y12 receptor (Homo sapiens, UniProt Q9H244), for CCOC(=O)c1cc(Cl)c(N2CCC(C(=O)NS(=O)(=O)Cc3ccc(Cl)cc3)CC2)nc1SCCNC(C)=O [Example 104] reads 0.057 µM
